Reported PBM binding z-score is given for each of the following sequences.
test system: LXRb homodimer (NR concentration 270 nM); test: PBM binding z-score (relative to random genomic background probes); higher = stronger binding; sequences stand for … in GC…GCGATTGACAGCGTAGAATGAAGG

# SEQUENCE DATA, PBM binding z-score
rows = [
    ("AGTCAAAGTTCACGAGGTAACGTAAGATTCAGCT", 1.13),
    ("TCTGCTGGGTCAACGATGGTCAGCTAATCTGCTA", -0.168),
    ("TAGCCTAGGACATGCGGGCCAGTATAGTGTCGGC", -1.2),
    ("ACTAGGAGGACAAAGGTCAGAGCTACGCCAGTGA", 0.612),
    ("ACTAGTTGGTCAGCTGAGGTCACACACAATTCGG", 0.66),
    ("AGTCAAAGTTCAGGACGAGGTACCGTAAAGCACG", 0.243),
    ("CAAACTAGGTCAAGGGGTCAAAGTCCGCTTCCCG", 1.17),
    ("TATACTGGGTCAAAGGCCAGAGTACGAATGTCGA", 1.32),
    ("GATACAGGGTCAAGGCCAGAGTACGCGTATTGAT", -0.282),
    ("GCTGCTAGGTCAGGTTGGTCAACTAACGGGTACG", -0.424),
    ("CGAACTAGGTCAGAACAGGACAGTTAAGGATGAT", -0.36),
    ("TCTACTTGGTCACGGAGGTCACACACGACGGGTA", 1.3),
    ("TCTAGCAGGCCATAGGGTCACTCAAGAGGTACGG", -0.428),
    ("CGACCTAGGTCACCAGGACAGTGAAGAGGTTGGA", -0.881),
    ("CGAACTAGGTCATCGAGGACAGTGAATACATTGA", -0.0709),
    ("ACTAGTTGCTCAGCTGAGGTCACACACAATTCGG", 0.214),
    ("CGCACTAGGTCATTGACAGGACAGTGAATAGTAA", 0.424),
    ("CAAACTAGGTCAAAGGTCAACGTCGAGCCAACCA", 2.37),
    ("ATCTCTAGGTAAAGTTCAGCGAAAGATCGATAGA", 0.72),
    ("TAGCCTAGGTCATGCGGGCCAGTATAGTGTCGGC", -0.409),
    ("CCTACTGGGCCAAGGTCTTTGATCAGTCAAAGCA", -0.812),
    ("CTTACTGGGCCAAAGGTCATTGATTCCAATGCTC", 0.936),
    ("CAAACTAGGTCACGAAAGGTCAACGTCGAATGAC", 2.11),
    ("CGAACTAGTTCAAGGACAGTGAATCTCCGCACGC", -0.693),
    ("CCGACTGGGGCAAAGGTTACGATACTCAGTACGA", -1.04),
    ("CCTACTGGGCCACTCAGAGGTCATTGATCATATG", 0.238),
]

* * *

tested on: PPARg DBDmut IVT, anti-PPARg (DBD mutation: PPARg1 K132A/R137A, NR concentration 270 nM); test: PBM binding z-score (relative to random genomic background probes); higher = stronger binding; sequences stand for … in GC…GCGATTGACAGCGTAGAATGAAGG
Please mark Yes if the recorded PBM binding z-score is equal to or greater than 0.4, and No if it falls below.

# SEQUENCE DATA, CAT
data = [
    ("CGAACTAGGTCAAAGAACAGTGAAAGGCGACGTA", "Yes"),
    ("TCTTGTTGATCAAAGGTTAAGAAAGCCGAAGCCT", "Yes"),
    ("ATATGTGGGTTAGGGTCATTCAGAAAGTAGGGAA", "Yes"),
    ("CGAACTAGGTCAAAGGAAAGTGAAAGGCGACGTA", "Yes"),
    ("TATTGTAGATCAAAGGTTAAGAAAGCCGAAGCCT", "Yes"),
    ("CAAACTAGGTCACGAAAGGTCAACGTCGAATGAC", "Yes"),
    ("ATATGTAGGTTAGGGTCATTCAGAAAGTAGGGAA", "Yes"),
    ("ATCTCTAGGTAAATGTTCAGTGAATCCCGAGGAT", "Yes"),
    ("ATGTGTAGGTTACATCCGGGTCATTCAGGCTATG", "Yes"),
    ("TTACCAAGGTGAAAGGTCGTTGAAGCACGCCTTG", "No"),
    ("CGTCAAAGTTCACCTAAGGTAACGTAAAGCACGC", "Yes"),
    ("CAAACTAGGTCACGAAAGGTCAAAGCCGAATGAC", "Yes"),
    ("TCAGATAGGTAAAGGTGAAAGTCGAACGATATGA", "No"),
    ("AATACAGGGTCACTTGGCCAGAGTAGGTACGAAT", "Yes"),
    ("AGAATGAGGTTACCAGAGATCAGGGAAACGCTTG", "No"),
    ("CTTTACGGGTCAAGGTTATAGCACGGGTGGTACG", "Yes"),
    ("ATATGTAGTTTAGGGTCATTCAGAAAGTAGGGAA", "Yes"),
    ("CGTCCAAGGGCAGCAGGTCAGTGAAAGCGACGTG", "No"),
    ("CCTACTGGGCCAAAGGTCCTTGATTCCAATGCTC", "No"),
    ("CGAACTAGCTCACCAGGACAGTGAAGAGGTTGGA", "No"),
    ("TAGCCTAGGTCATTGGGCTAGTATAGTACGCATC", "No"),
    ("AGATTGAGGTTACCAAAGATCAGGGAAACGCTTG", "No"),
    ("TGAATGACGTTAAAGATCAGGGAACGTGGCGTCG", "No"),
    ("CGAACTAGGTCACAAGGACAGTGAAGAGGTTGGA", "Yes"),
    ("GCATACGGGTCAAAGGTTATAGCATGAATAGAAT", "Yes"),
    ("CGTCAAAGTTCAACTAAGTTAACGTAAAGCACGC", "Yes"),
]
